# apparent KD of MS2 coat protein annotations
- Test system: MS2 coat protein
- assay_text: apparent KD of MS2 coat protein; designed switch direction (-1 OFF switch, 1 ON switch): 1; higher = weaker reporter binding
- settings: Eterna round: R95; input ligand: none
Output spec: scalar in µM, unitless text.

Before answering, review these 5 worked examples.
residue_codes	units_text	apparent KD of MS2 coat protein
GGAGCCGGUACUGAGGAUAUUCAUUUUAAAACAUGAGGAUCACCCAUGUAGGCCAGAAGGCCUUGGGAGAAGGCAGAUCGGCUCC [Biseusra - 6] (puzzle: Same State 2)	µM	0.281
UCUUGGUUUUUGCUCGUUUUUUGUGUUGAACAUGAGGAUCACCCAUGUAUUGUACGGUCCGAUUUAGUGGUAGUCCG [JMF 72] (puzzle: Sensor for hsa-mir-208a)	µM	0.036
UCUUGGUUUUUGCUCGUUUUUUGUGUUGAACAUGAGGAUCACCCAUGUAUUGUACGGUCCGGUUUGAUGAUGGUCCA [JMF 46] (puzzle: Sensor for hsa-mir-208a)	µM	0.0383
AUUAAACAUGAGGAUCACCCAUGUCAACAAAGUCGAGGAUAUGGGCAAAUAUUAUAAUAACCAGAAGGCGAAUAAU [salish99_ss1_r3_082] (puzzle: Same State 1)	µM	0.149
GAAUUUGAACUACAGGAUAUAUAGCAGAUGACAUGAGGAUCACCCAUGUAAGAGAAAGGAGGGAAAUAGAAGGGUAUGGGAGGUG [JR_SS2_Sub034] (puzzle: Same State 2)	µM	0.0377

I have this sequence here, UCUUGGUUUUUGCUCGUUUUUUGUGUUGAACAUGAGGAUCACCCAUGUAUUGUACAGUCCGAUUUAAUAAUGGUCCG [JMF 57] (puzzle: Sensor for hsa-mir-208a) , and I need its recorded apparent KD of MS2 coat protein.
0.0338

I have this sequence here, UUAAGCCGCGGGCAGGAUAUGUAUUAAAAUACAUGAGGAUCACCCAUGUGCAGGUGUAACACCUGACAGAAGGGCCAAUCGCGGC [Soteed - 5] (puzzle: Same State 2) , and I need its recorded apparent KD of MS2 coat protein.
0.229

I have this sequence here, AAGUAACAUGAGGAUCACCCAUGUGAGGUGAGCGUAGGAUAUCGAGGAGGUAGGGUAGGUCGAGAAGGACGAGAAG [JR_SS1_Sub095] (puzzle: Same State 1) , and I need its recorded apparent KD of MS2 coat protein.
0.7

I have this sequence here, UCUUGGUUUUUGCUCGUUUUUUGUGUUGAACAUGAGGAUCACCCAUGUAUUGUACGGUCCAAUUUAAUAAUAGUCCA [JMF 75] (puzzle: Sensor for hsa-mir-208a) , and I need its recorded apparent KD of MS2 coat protein.
0.0755

I have this sequence here, CGGGUACAUGAGGAUCACCCAUGUUGGAGUAAUGCAGGAUAUGUGAGACGAGAAGAUAAAACAGAAGGGCAAGGAG [JR_SS!_Sub009] (puzzle: Same State 1) , and I need its recorded apparent KD of MS2 coat protein.
0.0776

I have this sequence here, UGUUAACAUGAGGAUCACCCAUGUCAAAUGAAUCGAGGAUAUGGGAAGGAAGAAGAGAAACUAGAAGGCGAAGUUG [Altered State 1-4 - Jieux - Same State 1] (puzzle: Same State 1) , and I need its recorded apparent KD of MS2 coat protein.
0.216

###

- Tested on: MS2 coat protein
- assay_text: apparent KD of MS2 coat protein, switch ON state; designed switch direction (-1 OFF switch, 1 ON switch): -1; higher = weaker reporter binding
- settings: FMN input: 0 or 200 uM; Eterna round: R93 (includes R88 designs)
result_type: apparent KD of MS2 coat protein (nM)
Output spec: scalar in nM, unitless text.

> print(dat)
                              residue.codes     target.system  recorded.number
1  AAGAAGUGAGGAUAUGUCUGUGCGAAAAAAAAAAAGUGCAGACAGAAGGCACAUGAGGAUCACCCAUGUGGGAA [Florian 65% 6]  MS2 coat protein             76.6
2  AAAAAACAUGAGGAUCACCCAUGUAAGGAUAUCUAAAAUAAAAGAAAAAUAAAGAAAAGGAGAAGGUAUAUGGA [JL wbt mod 24]  MS2 coat protein             27.1
3  AGUUGGCGAGGAUAUACAUGAGGAUCACCCAUGUAAGAGUAAAGAGUGAGAAAGAGAAGUAGAAGGCGCUGACA [Ruby 57]  MS2 coat protein               53

I have this sequence here, AAAAAGCGAGGAUAUACUAAAAAACCUCAAAAAAAAAAAAAACAUGAGGAUCACCCAUGUAGAAGGCGCAAAAA [JR_Exc002_Sub001] , and I need its recorded apparent KD of MS2 coat protein.
86.1

###

# apparent KD of MS2 coat protein annotations
- System: MS2 coat protein
- assay_text: apparent KD of MS2 coat protein, switch OFF state (with FMN for OFF switches, without FMN for ON switches); designed switch direction (-1 OFF switch, 1 ON switch): -1; higher = weaker reporter binding
- settings: FMN input: 0 or 200 uM; Eterna round: R93 (includes R88 designs)
Please format your answer as a value with the unit trailing.

Before answering, review these 3 worked examples.
> print(dat)
                              residue.codes   result
1  AAAAAGUCAGGAUAUGCGAAGGCGUCUGAUAGACGAGGCUAGCAGAAGGGACAUGAGGAUCACCCAUGUAAAAA [Mat - Mod of Nando]    45 nM
2  AAGGGACAUGAGGAUCACCCAUGUCAGGAUAUGCAAACAACAAACAACAAACAACAAAGCAGAAGGGACAAAAA [63%, Olong, 5]  24.1 nM
3  AGUGAGUGAGGAUAUGACUGAAGAAUAAAAGAAAUAACAAGUCAGAAGGCACAUGAGGAUCACCCAUGUACACA [May 60]  25.6 nM

I have this sequence here, AAGAAGCGAGGAUAUACAUGAGGAUCACCCAUGUAAAAGAAAGAGGGAAAAGAGAAAAGUAGAAGGCGCAAGAA [Philip III Arrhidaeus] , and I need its recorded apparent KD of MS2 coat protein.
123 nM

I have this sequence here, AAAAAACAUGAGGAUCACCCAUGUCAGGAUAUGCGAAGCAAAAAAAAAAAAAAGCGAAGUAGAAGGGACUAAAA [Exclusion1 Malc#6] , and I need its recorded apparent KD of MS2 coat protein.
40.1 nM

I have this sequence here, AAGAACGCAGGAUAUACAAAAUAAAAGAAAAGAAAGAAAGAACAUGAGGAUCACCCAUGUAGAAGGGCGAAGAA [Sewadjkare] , and I need its recorded apparent KD of MS2 coat protein.
49.5 nM

###

- System: MS2 coat protein
- assay_text: apparent KD of MS2 coat protein; designed switch direction (-1 OFF switch, 1 ON switch): 1; higher = weaker reporter binding
- settings: input ligand: FMN 200 uM
# apparent KD of MS2 coat protein annotations
Output spec: scalar in nM, unitless text.

residue_codes	units_text	apparent KD of MS2 coat protein
CUGAGCAGUCAAGGAUAUCACGUCGAUUAGACGUGAGAAGGUGAUCAUUACAUGAGGAUCACCCAUGUGUUACAUGGAGCUCAG [Brourd's SSNG1/1-A2 mod 5] (Eterna round: R96, puzzle: Same State NG 1)	nM	413
GUUACAUGAGGAUCACCCAUGUAUGUGUGGGAGUAAGUGUCUUAGGAUAUCUAUUAUUUAAUUUUAGAGAAGGAAGAUUGUUGU [JMF's solution 27] (Eterna round: R96, puzzle: Same State NG 3)	nM	138
AAUUAAGAUCAAGGAUAUCACGUCGAAUAGACGUGAGAAGGUGAUCAUAACAUGAGGAUCACCCAUGUAUUACAUGAAUUAAUU [SSNG1/2-B1] (Eterna round: R96, puzzle: Same State NG 1)	nM	71.3

I have this sequence here, AGAGGAGGAGCAGGAUAUGCGAAGAAGAAAGAGGUAGAAGGGCUCAUGGGAUGACAUGAGGAUCACCCAUGUACCGCCCGAGGA [AK SSNG1-V2-8.1] (Eterna round: R96, puzzle: Same State NG 1) , and I need its recorded apparent KD of MS2 coat protein.
11.5

I have this sequence here, GCGGUAACUCACAUGAGGAUCACCCAUGUUCCGGAAACGGCACAGGAUAUCUGUCCGAAAAGGUCAGAGAAGGGUGAAAUCCGC [Fiskers NG3ss - 91] (Eterna round: R96, puzzle: Same State NG 3) , and I need its recorded apparent KD of MS2 coat protein.
641

I have this sequence here, AGAUCAUGACGAGGAUAUGCCACAUGAGGAUCACCCAUGUAUGUGGUAGGACGGAAACGUCCAAAGCAGAAGGCGUCGUGGUCA [Mat - Same State NG 2 - JL mod - D35] (Eterna round: R96, puzzle: Same State NG 2) , and I need its recorded apparent KD of MS2 coat protein.
23.1

I have this sequence here, GCCAACUCAUGAGGAUAUGGCACCUUAUUGGUGCCAGAAGGCAUGUCUAUUGACAUGAGGAUCACCCAUGUAUUAUAGUUGGCA [Fiskers NG1ss - 23] (Eterna round: R96, puzzle: Same State NG 1) , and I need its recorded apparent KD of MS2 coat protein.
83.9
